Target: anti-CLL-1 CAR (chimeric antigen receptor presenting the anti-CLL-1 scFv), expressed on primary human T cells
Assay: flow cytometry histogram; hybridoma clonal supernatant on anti-CLL-1 CAR-transduced primary human T cells, detected with FITC goat anti-rabbit F(ab')2; fraction of events in the CAR+ gate
measurement_kind: CAR+
I'd appreciate a reply containing only the number, no unit.

# annotated cases, reported CAR+ shown
KIP-10 Clone 63-2 (antibody, V domains shown) VH: QQQLEESGGGLVKPGGTLTLTCKASGFSFSSDYDMCWVRQAPGKGLEWIACIYAGSSDNTYYATWAKGRFTISKTSSTTVTLQMTSLTAADTATYFCARDTADINFYFKLWGPGTLVTVSS VL: DIVMTQTPASVSAAVGGTVTIKCQASESVSRWLAWYQQKPGQPPNLLIYSASTLASGVPSRFRGSGSGTEYTLTISDLECADAATYYCQGGYYSGGETYHNSFGGGTEVVVK :: 57.8
KIP-10 Clone 15-2 (antibody, V domains shown) VH: QEQLVESGGGLVKPGASLTLTCKASGFSFSVGYDMCWVRQAPGKGLEWIACIDTDSSSRTWNASWAKGRFTISKPSSTTVTLQMTSLTAADTATYFCARNDDTSGWGSKLWGPGTLVTVSS VL: DVVMTQTPASVSEPVGGTVTIKCQASQTIGSALAWYQQKPGQPPKLLIYTASNLASGVSSRFKGSRSGTEFTLTISDLECADAATYYCQHTFYGTSYVDAFGGGTEVVVK :: 58

Lookup: Please report the recorded CAR+ for KIP-10 Clone 103-2 (antibody, V domains shown) VH: QSVEESGGRLVTPGTPLTLTCTVSGFSLGSYYMSWVRQAPGKGLEWIGIIYQSGNTDYASWAKGRFTISKTSSTTVDLKMTSLTTEDTATYFCAREGYAGYVGYSYNIWGPGTLVTVSS VL: AYDMTQTPASVSAAVGGTVSINCQASEDIESYLAWYQQRPGQPPKLLIYSASTLASGVSSRFKGSGSGTQFTLTISDLECADAATYYCQQGASSNDVEEPFGGGTEVVVK .
Found: 55.9
